- Tested on: HUVEC
- method.notes: Antiangiogenic activity in human HUVEC cells assessed as inhibition of VEGF-induced tube formation incubated for 6 hrs by matrigel based inverted microscopic analysis
- Type: functional, cell-based
Positions of bridges follow the written chain, without caps; N, C: chain ends. Non-standard residues stand in square brackets, D forms with d. Residues, ends and D or L forms follow the SMILES beside them. NMeY = CN[C@@H](Cc1ccc(O)cc1)C(=O)O
endpoint.name: IC50 (µM)
Numeric only. Scale: µM

molecule	IC50 [µM]
CC(=O)N[C@@H]1C(=O)N[C@@H](Cc2ccccc2)C(=O)N[C@H](CC(C)C)C(=O)N[C@@H](C(C)C)C(=O)N2CCC[C@H]2C(=O)N[C@@H](CC(C)C)C(=O)N(C)[C@@H](Cc2ccc(O)cc2)C(=O)N2CCC[C@H]2C(=O)O[C@@H]1C (Ac-TF[dL]VPL[NMeY]P; ester 1-C)	28

Next, consider the following molecule.
Any idea what IC50 was measured for `CCN(CC)CCNC(=O)c1c(C)[nH]c(/C=C2\C(=O)Nc3ccc(F)cc32)c1C` ?
3.5

* * *

- Test system: HUVEC
- method.notes: Antiangiogenic activity in human HUVEC cells assessed as inhibition of VEGF-induced tube formation incubated for 6 hrs by matrigel based inverted microscopic analysis
- Assay type: functional, cell-based
pIC50: −log10 of the molar value. Positions of bridges follow the written chain, without caps; N, C: chain ends. Non-standard residues stand in square brackets, D forms with d. Residues, ends and D or L forms follow the SMILES beside them. *: point of attachment. NMeY = CN[C@@H](Cc1ccc(O)cc1)C(=O)O; Propionyl = CCC(=O)*
endpoint.name: pIC50

Answered examples (2):
compound	measured.on	pIC50
CCC(=O)N[C@@H]1C(=O)N[C@@H](Cc2ccccc2)C(=O)N[C@H](CC(C)C)C(=O)N[C@@H](C(C)C)C(=O)N2CCC[C@H]2C(=O)N[C@@H](CC(C)C)C(=O)N(C)[C@@H](Cc2ccccc2)C(=O)N2CCC[C@H]2C(=O)O[C@@H]1C	HUVEC	< 4.40
CCC(=O)N[C@@H]1C(=O)N[C@@H](Cc2ccccc2)C(=O)N[C@H](CC(C)C)C(=O)N[C@@H](C(C)C)C(=O)N2CCC[C@H]2C(=O)N[C@@H](CC(C)C)C(=O)N(C)[C@@H](Cc2ccc(O)cc2)C(=O)N2CCC[C@H]2C(=O)O[C@@H]1C (Propionyl-TF[dL]VPL[NMeY]P; ester 1-C)	HUVEC	< 4.40

Moving on to another compound below.
Need pIC50 of `CCC(=O)N[C@@H]1C(=O)N[C@@H](Cc2ccccc2)C(=O)N[C@H](CC(C)C)C(=O)N[C@@H](C(C)C)C(=O)N2CCC[C@H]2C(=O)N[C@@H](CC(C)C)C(=O)N(C)[C@@H](Cc2ccc(O)cc2)C(=O)N2CCCC[C@H]2C(=O)O[C@@H]1C` , thanks.
< 4.40

Data credit: ChEMBL document CHEMBL6078709
